# MEASUREMENT NOTES: plasma protein binding, rat
# Format: in vitro ADME
QUANTITY KIND: fraction unbound

The value of fraction unbound measured for the compound O=C1CN(C(=O)c2c(F)cccc2F)[C@H](c2cccc(Br)c2)N1O turned out to be 0.15

---

# MEASUREMENT NOTES: in vivo pharmacokinetics, dog
# Set-up: species or system Beagle dogs
# CONDITION SET: Beagle, plasma, intravenous, body weight 10 kg
QUANTITY KIND: clearance (mL/min)
Express the result in mL/min but write the number alone.

The value of clearance measured for the molecule O=C1CN(C(=O)c2c(F)cccc2F)[C@H](c2cccc(Br)c2)N1O [NTRC 3883-0] turned out to be 286

---

# MEASUREMENT NOTES: in vivo pharmacokinetics, dog
# Design: species or system Beagle dogs
# CONDITION SET: Beagle, plasma, po, p.o. versus i.v., read-out: Bioavailability (F)
QUANTITY KIND: bioavailability (%)
Quick reminder: number only, in %, skip the unit.

bioavailability recorded for this molecule, O=C1CN(C(=O)c2c(F)cccc2F)[C@H](c2cccc(Br)c2)N1O [NTRC 3883-0] , is 32

---

# MEASUREMENT NOTES: in vivo pharmacokinetics, mouse
# Design: species or system male CD-1 mice
# CONDITION SET: male, CD-1, plasma, intravenous; mouse, body weight 0.036 kg
QUANTITY KIND: clearance (mL/min)
Write down the numeric answer in mL/min and omit the unit.

For O=C1CN(C(=O)c2c(F)cccc2F)[C@H](c2cccc(Br)c2)N1O the compound record lists clearance as 0.667

---

# MEASUREMENT NOTES: in vivo pharmacokinetics, mouse
# Design: species or system male CD-1 mice
# CONDITION SET: male, CD-1, mouse, plasma, intravenous
QUANTITY KIND: clearance (mL/min/kg)
Field format: number, assumed mL/min/kg, no unit text.

Reported clearance for O=C1CN(C(=O)c2c(F)cccc2F)[C@H](c2cccc(Br)c2)N1O [NTRC 3883-0] was 18.5

---

# MEASUREMENT NOTES: in vivo pharmacokinetics, monkey
# CONDITION SET: cynomolgus monkey, plasma, intravenous; read-out: Vss
QUANTITY KIND: Vd (L/kg)
All answers are understood in L/kg, so give the number only.

Vd recorded for this compound, O=C1CN(C(=O)c2c(F)cccc2F)[C@H](c2cccc(Br)c2)N1O , is 2.25

---

# MEASUREMENT NOTES: in vivo pharmacokinetics, mouse
# Design: species or system male CD-1 mice
# CONDITION SET: male, CD-1, mouse, plasma, intravenous; read-out: Vss
QUANTITY KIND: Vd (L/kg)
Field format: number, assumed L/kg, no unit text.

So for O=C1CN(C(=O)c2c(F)cccc2F)[C@H](c2cccc(Br)c2)N1O [NTRC 3883-0] , the logged Vd turned out to be 3.63

---

# TARGET: human IDO1 (Homo sapiens, UniProt P14902)
# Construct: Full-length recombinant human and mouse IDO1 were expressed in Escherichia coli with a hexahistidine tag at the N-terminus; hexahistidine (N); made in house; host or cells: Escherichia coli
# MEASUREMENT NOTES: human IDO1 biochemical assay (NFK GreenScreen)
# CONDITION SET: human IDO1 biochemical assay
pIC50: −log10 of the molar value.
Param threshold (6) applies to pIC50; output 1.0 when value >= threshold, 0.0 when value < threshold.

Exercise: Test whether the compound O=C1CN(C(=O)c2ccc(F)cc2F)C(c2cccc(Br)c2)N1O (centres unmarked) [Compound 3i] records pIC50 of 6 or higher.
Key: 1.0

Exercise: Check if pIC50 >= 6 (inclusive). Item: COc1ccccc1C(=O)N1CC(=O)N(O)C1c1cccc(Br)c1 (centres unmarked) [Compound 3e]
Key: 0.0

Exercise: # bool: pIC50 of O=C1CN(C(=O)c2ccccc2)C(c2ccc(Br)cc2)N1O (centres unmarked) [Compound 2d] >= 6
Key: 0.0

Exercise: Is pIC50 for O=C1CN(C(=O)c2cc(F)ccc2F)C(c2cccc(Br)c2)N1O (centres unmarked) [Compound 3h] at or above 6?
Key: 1.0

Exercise: Tell me whether pIC50 is at least 6 here: O=C1CN(C(=O)c2ccccc2)C(c2cccc(C(F)(F)F)c2)N1O (centres unmarked) [Compound 2g]
Key: 0.0

Exercise: Assess whether reported pIC50 for O=C1CN(C(=O)c2ccccc2Br)C(c2cccc(Br)c2)N1O (centres unmarked) [Compound 3g] sits at 6 or higher.
Key: 0.0

Exercise: Is reported pIC50 greater than or equal to 6 here: O=C1CN(C(=O)c2ccccc2)C(C2CCCCC2)N1O (centres unmarked) [Compound 2e]
Key: 0.0

Exercise: Tell me whether pIC50 is at least 6 here: O=C1CN(C(=O)c2ccccc2)C(c2cccc(Cl)c2)N1O (centres unmarked) [Compound 2b]
Key: 0.0

Exercise: # check: pIC50 of O=C1CN(C(=O)c2ccc(F)cc2)C(c2cccc(Br)c2)N1O (centres unmarked) [Compound 3a] is greater than or equal to 6
Key: 0.0

Exercise: Check if pIC50 >= 6 (inclusive). Item: O=C1CN(C(=O)c2ccccc2)C(c2ccccc2)N1O (centres unmarked) [Compound 2a]
Key: 0.0

Exercise: Item O=C1CN(C(=O)c2c(F)cccc2F)C(c2cccc(Br)c2)N1O (centres unmarked) [Compound 3j] with pIC50 of 6 or above?
Key: 1.0

Exercise: Could you please find out whether Cc1ccccc1C(=O)N1CC(=O)N(O)C1c1cccc(Br)c1 (centres unmarked) [Compound 3d] has pIC50 that meets 6 or exceeds it?
Key: 0.0

Exercise: Reported pIC50 at or above 6? O=C1CN(C(=O)c2ccccc2)C(c2ccccc2Br)N1O (centres unmarked) [Compound 2c]
Key: 0.0

Exercise: Form field: pIC50 at least 6? Entry: O=C1CN(C(=O)c2c(F)cccc2F)[C@H](c2cccc(Br)c2)N1O [NTRC 3883-0]
Key: 1.0

Exercise: For this compound, is measured pIC50 6 or higher? O=C1CN(C(=O)c2c(F)cccc2F)[C@@H](c2cccc(Br)c2)N1O [Compound 3k]
Key: 0.0

Exercise: Does the compound N#Cc1cccc(C2N(O)C(=O)CN2C(=O)c2ccccc2)c1 (centres unmarked) [Compound 2f] have recorded pIC50 that is 6 or more?
Key: 0.0

Exercise: Check if pIC50 >= 6 (inclusive). Item: O=C1CN(C(=O)c2ccccc2F)C(c2cccc(Br)c2)N1O (centres unmarked) [Compound 3c]
Key: 1.0

---

# TARGET: HEK-hIDO1 (Homo sapiens, UniProt P14902)
# MEASUREMENT NOTES: cell-based assay, Trp-catabolizing activity in HEK-hIDO1 cells
QUANTITY KIND: pIC50
API: returns pIC50 as number; meaning -log10 of concentration in mol/L.

HEK-hIDO1 (Homo sapiens, UniProt P14902) data for O=C1CN(C(=O)c2c(F)cccc2F)[C@H](c2cccc(Br)c2)N1O ; its pIC50: 6.92

---

QUANTITY KIND: pIC50
// pIC50: -log10(molar conc.)

Per the reported mTDO (Mus musculus) data, NS(=O)(=O)NCCNc1nonc1C(=NO)Nc1ccc(F)c(Br)c1 [epacadostat, reference compound] has pIC50 of 6.65

---

# MEASUREMENT NOTES: in vivo pharmacokinetics, monkey
# CONDITION SET: cynomolgus monkey, plasma, intravenous
# Method: Pharmacokinetic properties of NTRC 3883-0 were determined in plasma following single oral (p.o.) and i.v. administration to male CD-1 mice (n = 6 per treatment group with three mice sampled per time point), Wistar rats (n = 3), cynomolgus monkey (n = 1) and Beagle dogs (n = 3). Formulations were prepared in DMSO, Kolliphor® EL, 5% D-mannitol in Elix water at a volume ratio of 1:1:8 for i.v. administration, and in 0.5% gelatin, 5% D-mannitol in Elix water for p.o. administration. […]
QUANTITY KIND: clearance (L/h/kg)
Please give a number only; it is taken to be in L/h/kg.

Lab book: clearance of O=C1CN(C(=O)c2c(F)cccc2F)[C@H](c2cccc(Br)c2)N1O [NTRC 3883-0] noted as 2.22

---

# TARGET: A375 + IFNγ (hIDO1) (Homo sapiens, UniProt P14902)
# Sequence (P14902 whole entry): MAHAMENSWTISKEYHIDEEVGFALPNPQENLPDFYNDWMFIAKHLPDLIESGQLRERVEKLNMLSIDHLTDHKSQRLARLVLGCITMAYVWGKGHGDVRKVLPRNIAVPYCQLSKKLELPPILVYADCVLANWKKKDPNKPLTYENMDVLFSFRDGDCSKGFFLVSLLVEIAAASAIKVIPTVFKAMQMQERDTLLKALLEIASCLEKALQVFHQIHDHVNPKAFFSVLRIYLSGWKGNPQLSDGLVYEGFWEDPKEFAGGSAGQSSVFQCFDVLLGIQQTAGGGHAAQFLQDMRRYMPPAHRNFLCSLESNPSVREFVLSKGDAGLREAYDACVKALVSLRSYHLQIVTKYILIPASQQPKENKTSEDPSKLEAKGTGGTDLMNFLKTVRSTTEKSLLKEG
# MEASUREMENT NOTES: cell-based assay, Trp-catabolizing activity in IFNγ-stimulated A375 cells
# CONDITION SET: IFNγ-stimulated A375 human melanoma cells
QUANTITY KIND: pIC50
// scale note: pIC50 = -log10(conc_M); give the bare number

Documented pIC50 of O=C1CN(C(=O)c2cccc(F)c2)C(c2cccc(Br)c2)N1O (centres unmarked) : 5.28

// field: pIC50; key: O=C1CN(C(=O)c2ccccc2Br)C(c2cccc(Br)c2)N1O (centres unmarked) ; value = 4.90

For reference, reported pIC50 for O=C1CN(C(=O)c2ccccc2)C(c2cccc(C(F)(F)F)c2)N1O (centres unmarked) stands at 5.28

Input O=C1CN(C(=O)c2ccc(F)cc2F)C(c2cccc(Br)c2)N1O (centres unmarked) . Output pIC50: 5.67

Consider Cc1ccccc1C(=O)N1CC(=O)N(O)C1c1cccc(Br)c1 (centres unmarked) . Its measured pIC50 is 4.66

The recorded pIC50 for entry O=C1CN(C(=O)c2c(F)cccc2F)[C@H](c2cccc(Br)c2)N1O equals 6.74

pIC50 reported for this compound O=C1CN(C(=O)c2c(F)cccc2F)[C@@H](c2cccc(Br)c2)N1O : 5.34
